molecular target: Replicase polyprotein 1ab (Severe acute respiratory syndrome coronavirus 2, UniProt P0DTD1)
measure: IC50 (nM)
Give bare numbers, in nM.

>  <compound smiles>
NC(=O)c1ccc2c(c1)C(=O)C(=O)N2Cc1cn(Cc2ccc(S(N)(=O)=O)cc2)nn1

>  <result unit>
nM

>  <IC50>
1120

$$$$

Batch request: IC50 for each of the following compounds.
1. NC(=O)c1ccc2c(c1)C(=O)C(=O)N2Cc1ccc2ccccc2c1
2. NC(=O)c1ccc2c(c1)C(=O)C(=O)N2Cc1cn(Cc2ccc(C(F)(F)F)cc2F)nn1
3. NC(=O)c1ccc2c(c1)C(=O)C(=O)N2Cc1cn(Cc2cccc(Cl)c2)nn1

*A*
[300, 530, 440]

====

target: Replicase polyprotein 1ab (Severe acute respiratory syndrome coronavirus 2); test: Inhibition of SARS-CoV-2 MPro at 1 uM using MCAAVLQSGFR-Lys(Dnp)-Lys-NH2 as substrate incubated for 10 mins by FRET assay relative to control
measure: inhibition

>  <compound smiles>
NC(=O)c1ccc2c(c1)C(=O)C(=O)N2Cc1cn(Cc2cccc(Cl)c2)nn1

>  <tested target>
Replicase polyprotein 1ab (Severe acute respiratory syndrome coronavirus 2)

>  <measured value>
76.4%

$$$$

Give one value of inhibition per listed molecule.
1. NC(=O)c1ccc2c(c1)C(=O)C(=O)N2Cc1cn(Cc2ccc(S(N)(=O)=O)cc2)nn1
2. NC(=O)c1ccc2c(c1)C(=O)C(=O)N2Cc1ccc2ccccc2c1

*A*
["73.3%", "87.3%"]

*Q* # get_value(readout='inhibition', item= NC(=O)c1ccc2c(c1)C(=O)C(=O)N2Cc1cn(Cc2ccc(C(F)(F)F)cc2F)nn1 )
*A* 78.1%

====

assay: Cytotoxicity against African green monkey Vero E6 assessed as inhibition of cell growth incubated for 26 hrs; type: toxicity, cell-based; settings: chlorocebus sabaeus, Vero E6 cells (Vero C1008)
Could you please report measured CC50 at 26 h for the items listed next?

Previously resolved entries follow.
>  <compound smiles>
NC(=O)c1ccc2c(c1)C(=O)C(=O)N2Cc1cn(Cc2ccc(C(F)(F)F)cc2F)nn1

>  <CC50 at 26 h>
> 20 µM

$$$$
>  <compound smiles>
NC(=O)c1ccc2c(c1)C(=O)C(=O)N2Cc1cn(Cc2ccc(S(N)(=O)=O)cc2)nn1

>  <CC50 at 26 h>
> 20 µM

$$$$
>  <compound smiles>
NC(=O)c1ccc2c(c1)C(=O)C(=O)N2Cc1ccc2ccccc2c1

>  <CC50 at 26 h>
< 2.2 µM

$$$$

Now let's try a different one.
*Q* Reported CC50 at 26 h for NC(=O)c1ccc2c(c1)C(=O)C(=O)N2Cc1cn(Cc2cccc(Cl)c2)nn1 : what is it?
*A* > 20 µM
